# assay-notes: melting temperature; melt of duplexes
# condition-context: sodium 0.0675 M; strand 1 µM
Kindly state Tm for each of the entries shown.
I only need the number, in °C, no unit after it.

Indicate the recorded Tm value for this substance: CGACGTGCGCAATGTGCTG+CAGCACATCTGGCACGTCG ((((((((...((((((((+))))))))...))))))))
49.8

State its Tm: CGACGTGCCGGATGTGCTG+CAGCACATTCAGCACGTCG ((((((((.(.((((((((+)))))))).).))))))))
52.4

For the substance CGACGTGCGGGATGTGCTG+CAGCACATTTGGCACGTCG ((((((((...((((((((+))))))))...)))))))) , give its reported Tm.
51.3

---

Please provide measured Tm for the entries that follow.
# assay-notes: melting temperature; melt of duplexes
# condition-context: sodium 0.0675 M; strand 1 µM
Express the result in °C but write the number alone.

Quickly give me recorded Tm for CGACGTGCGTTATGTGCTG+CAGCACATATGGCACGTCG ((((((((..(((((((((+)))))))))..))))))))
51.1

Provide one value: measured Tm of CGACGTGCTCGATGTGCTG+CAGCACATCAAGCACGTCG (((((((((.(((((((((+))))))))).)))))))))
57.2

In one line, give reported Tm of the entry CGACGTGCAATATGTGCTG+CAGCACATGTCGCACGTCG ((((((((.(.((((((((+)))))))).).)))))))) .
51.5

Look up and state reported Tm for CGACGTGCGCGATGTGCTG+CAGCACATGGAGCACGTCG ((((((((.(.((((((((+)))))))).).))))))))
56

Return the recorded Tm value; entry: CGACGTGCTCAATGTGCTG+CAGCACATGAGGCACGTCG ((((((((...((((((((+))))))))...))))))))
53

Give the reported value of Tm for this record: CGACGTGCCTAATGTGCTG+CAGCACATAGTGCACGTCG ((((((((...((((((((+))))))))...))))))))
47.2

Look up and report measured Tm for this entry: CGACGTGCCTGATGTGCTG+CAGCACATCGGGCACGTCG (((((((((.(((((((((+))))))))).)))))))))
61.7

Provide one value: measured Tm of CGACGTGCAATATGTGCTG+CAGCACATAACGCACGTCG ((((((((..(((((((((+)))))))))..))))))))
50.7

Quick one: give measured Tm for CGACGTGCTCAATGTGCTG+CAGCACATATGGCACGTCG ((((((((...((((((((+))))))))...))))))))
50.5

Identify Tm associated with the substance CGACGTGCGACATGTGCTG+CAGCACATTCGGCACGTCG ((((((((...((((((((+))))))))...))))))))
51.9

Retrieve Tm measured for CGACGTGCTGGATGTGCTG+CAGCACATGGAGCACGTCG (((((((((..((((((((+))))))))..))))))))) and print it.
53.2

Answer with reported Tm of CGACGTGCTACATGTGCTG+CAGCACATAGGGCACGTCG ((((((((...((((((((+))))))))...))))))))
50.8
